# Tested on: PDC KRAS tumor spheroids with HUVEC/MSC, viability;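 further: spheroids exposed to compounds for seven days before readout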
# assay explanation: Anticancer human tumor 349418-098-R-PDC patient-derived lung adenocarcinoma cell line growth inhibition [KRAS2]; active means viability on the fitted dose curve at most 10% of control; inactive means the rest
# condition details: second compound 0.1 µM; first compound 1 µM
Lab note: assign the record to one of TRUE for active, FALSE for inactive

Use the examples below as a reference point.
# compound, category label
rows = [
    ("COc1cc2nccc(Oc3ccc(NC(=O)C4(C(=O)Nc5ccc(F)cc5)CC4)cc3)c2cc1OC + COc1cc2nc(C)nc(NC(C)c3cc(N)cc(C(F)(F)F)c3)c2cc1OC1CCOC1", "FALSE"),
    ("CC1(C)CCC(CN2CCN(c3ccc(C(=O)NS(=O)(=O)c4ccc(NCC5CCOCC5)c([N+](=O)[O-])c4)c(Oc4cnc5[nH]ccc5c4)c3)CC2)=C(c2ccc(Cl)cc2)C1 + COc1cc2nc(C)nc(NC(C)c3cc(N)cc(C(F)(F)F)c3)c2cc1OC1CCOC1", "FALSE"),
    ("CCN1CCN(Cc2ccc(Nc3ncc(F)c(-c4cc(F)c5nc(C)n(C(C)C)c5c4)n3)nc2)CC1 + CNCc1ccccc1-c1csc(C(C)Nc2nc(C)nc3cc(OC)c(OC)cc23)c1", "TRUE"),
]

Just curious, what result did CC(=O)OC12COC1CC(O)C1(C)C(=O)C(O)C3=C(C)C(OC(=O)C(O)C(NC(=O)OC(C)(C)C)c4ccccc4)CC(O)(C(OC(=O)c4ccccc4)C21)C3(C)C (centres undefined) + C=CC(=O)N1CCN(c2nc(=O)n(-c3c(C)ccnc3C(C)C)c3nc(-c4c(O)cccc4F)c(F)cc23)C(C)C1 get here?
FALSE
